Kindly state IC50 for each of the entries shown.
# target or test system: TBK1 (Homo sapiens)
# Construct: His-tag; made in house; host or cells: Sf9 insect cells
# Sequence (Q9UHD2 whole entry): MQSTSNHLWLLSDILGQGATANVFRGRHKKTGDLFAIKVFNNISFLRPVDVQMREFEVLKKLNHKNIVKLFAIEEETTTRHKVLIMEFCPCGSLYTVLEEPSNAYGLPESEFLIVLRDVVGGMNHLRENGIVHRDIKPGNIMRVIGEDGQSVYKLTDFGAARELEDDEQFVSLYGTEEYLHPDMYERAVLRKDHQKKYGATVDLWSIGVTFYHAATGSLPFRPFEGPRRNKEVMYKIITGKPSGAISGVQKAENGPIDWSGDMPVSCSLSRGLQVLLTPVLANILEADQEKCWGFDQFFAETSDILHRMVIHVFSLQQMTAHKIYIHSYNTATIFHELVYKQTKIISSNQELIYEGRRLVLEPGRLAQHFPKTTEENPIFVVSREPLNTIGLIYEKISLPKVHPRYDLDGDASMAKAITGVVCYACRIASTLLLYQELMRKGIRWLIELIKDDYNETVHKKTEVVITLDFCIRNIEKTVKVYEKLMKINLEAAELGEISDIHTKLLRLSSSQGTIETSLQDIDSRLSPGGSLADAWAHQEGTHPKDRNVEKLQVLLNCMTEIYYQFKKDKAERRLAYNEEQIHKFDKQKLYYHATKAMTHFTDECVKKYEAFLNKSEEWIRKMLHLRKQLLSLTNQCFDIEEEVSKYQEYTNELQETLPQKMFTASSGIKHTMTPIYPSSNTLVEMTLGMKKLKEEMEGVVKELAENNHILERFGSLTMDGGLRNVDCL
# procedure summary: In-vitro TBK1 kinase assay ([γ33]ATP filter-plate)
# Format: biochemical
# test parameters: text bins; read-out: IC50 for inhibition of the kinase activity of TBK1

Example entries begin here.
COc1cc(Nc2nccc(-c3ccc(OC4CCOCC4)c(C#N)c3)n2)ccc1S(=O)(=O)N(C)C1CCN(C)CC1 = < 10 nM
CC(C)(C)Oc1ccc(-c2ccnc(Nc3ccc(N4CCOCC4)cc3)n2)cc1C#N = < 10 nM
CS(=O)(=O)N1CCC(Oc2ccc(-c3ccnc(Nc4ccc(N5CCOCC5)cc4)n3)cc2C#N)CC1 = < 10 nM

Lab note: next compound to report on.
Record summary for "COc1cc(NC(=O)NCCO)cc(Nc2nccc(-c3ccc(OC)c(C#N)c3)n2)c1" : reported IC50 = 10 to 100 nM

---

For each of the molecules below, state its pIC50.
# target or test system: IKKε (Homo sapiens, UniProt Q14164)
# Construct: His-tag; made in house; host or cells: Sf9 insect cells
# Sequence (Q14164 whole entry): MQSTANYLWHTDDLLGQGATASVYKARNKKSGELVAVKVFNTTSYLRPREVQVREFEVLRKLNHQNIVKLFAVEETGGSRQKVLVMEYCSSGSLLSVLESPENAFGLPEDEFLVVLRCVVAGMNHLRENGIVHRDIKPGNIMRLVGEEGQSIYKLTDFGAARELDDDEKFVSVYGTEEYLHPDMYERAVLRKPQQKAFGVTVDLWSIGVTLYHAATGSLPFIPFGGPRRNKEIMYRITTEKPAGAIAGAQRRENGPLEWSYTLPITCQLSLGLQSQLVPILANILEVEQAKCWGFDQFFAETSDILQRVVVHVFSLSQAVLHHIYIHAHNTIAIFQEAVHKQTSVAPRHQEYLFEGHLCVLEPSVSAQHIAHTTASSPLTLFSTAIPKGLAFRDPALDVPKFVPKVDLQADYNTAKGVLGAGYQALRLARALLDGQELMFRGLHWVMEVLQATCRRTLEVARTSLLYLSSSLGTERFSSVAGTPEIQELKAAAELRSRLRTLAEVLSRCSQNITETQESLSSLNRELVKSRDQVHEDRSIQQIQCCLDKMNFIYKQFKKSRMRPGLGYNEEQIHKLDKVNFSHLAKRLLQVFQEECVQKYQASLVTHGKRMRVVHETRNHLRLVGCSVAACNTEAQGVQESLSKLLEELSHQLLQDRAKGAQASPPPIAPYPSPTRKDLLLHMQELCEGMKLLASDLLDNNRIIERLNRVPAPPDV
# procedure summary: In-vitro IKKε kinase assay ([γ33]ATP filter-plate)
# Assay type: biochemical
# test parameters: text bins; read-out: IC50 for inhibition of the kinase activity of IKKε
pIC50: −log10 of the molar value.

Look over these answered cases.
Cc1ccnc(NS(=O)(=O)c2ccc(Nc3nccc(-c4ccc(OC5CCOCC5)c(C#N)c4)n3)cc2)n1 = > 8.30
CN(C)C1CCN(C(=O)Nc2cccc(Nc3nccc(-c4ccc(OC5CCOCC5)c(C#N)c4)n3)c2)C1 (centres unmarked) = > 8.30
COc1cc(-c2ccnc(Nc3ccc(CN4CCN(CCO)CC4)cc3)n2)cc(C#N)c1OC1CCOCC1 = 7.30 to 8.30
N#Cc1cc(-c2ccnc(Nc3ccc(N4CCOCC4)cc3)n2)ccc1OC1CCN(C(=O)C2CC2)C1 (centres unmarked) = 6.30 to 7.30
CN(C)CCOc1ccc(Nc2nccc(-c3cccc(C#N)c3)n2)cc1 = 6.30 to 7.30
COc1cc(Nc2nccc(-c3ccc(OC4CCOCC4)c(C#N)c3)n2)ccc1S(=O)(=O)NCCCN1CCOCC1 = > 8.30
COc1ccc(Nc2nc(-c3cccc(C#N)c3)c3nc[nH]c3n2)cc1OC = 6.30 to 7.30
COc1cc(Nc2nccc(-c3ccc(OC)c(C#N)c3)n2)cc(OCCN2CCOCC2)c1 = 7.30 to 8.30
COc1ccc(Nc2nccc(-c3ccc(OC4CCOCC4)c(C#N)c3)n2)cc1OCCCN1CCN(C(C)C)CC1 = > 8.30
COc1cc(Nc2nccc(-c3ccc(OC4CCOCC4)c(C#N)c3)n2)ccc1C(=O)N1CCN(C)CC1 = > 8.30

# batch size: 7; output pIC50 per entry
1. Cc1cn(Cc2cccc(Nc3nccc(-c4ccc(OC5CCOCC5)c(C#N)c4)n3)c2)cn1
2. COCCNCc1ccc(Nc2nccc(-c3ccc(OC4CCOCC4)c(C#N)c3)n2)cc1
3. COc1ccc(Nc2nccc(-c3cccc(C#N)c3)n2)cc1OC
4. COc1cc(Nc2nccc(-c3ccc(NC(=O)C(C)C)c(C#N)c3)n2)ccc1N1CCNC(=O)C1
5. N#Cc1cc(-c2ccnc(Nc3ccc(N4CCOCC4)cc3)n2)ccc1OCC1CCNC1 (centres unmarked)
6. COc1ccc(-c2ccnc(Nc3ccc(N4CCOCC4)c(Cl)c3)n2)cc1C#N
7. COc1cc(NC(=O)CCSC)cc(Nc2nccc(-c3ccc(OC)c(C#N)c3)n2)c1

OUT:
["> 8.30", "> 8.30", "7.30 to 8.30", "> 8.30", "7.30 to 8.30", "> 8.30", "7.30 to 8.30"]

Origin of the recorded values: patent US20150352108A1
